The reader will find reported Approximate Solubility (mg/mL) in Excipient: Cottonseed oil values listed item by item below.
- reported conditions: Cottonseed oil; heating temp. 60 °C, obs. temp. 25 °C
test readout: Approximate Solubility (mg/mL) in Excipient: Cottonseed oil

| molecular string | measured |
| --- | --- |
| CCCCCCCC/C=C/CCCCCCCC(=O)OCOc1ccc2c3c1O[C@H]1C(=O)CC[C@@]4(O)C(C2)N(CC2CC2)CC[C@]314 | 204.3-239^ mg/mL |
| C=C1CC[C@@]2(O)C3Cc4ccc(OCOC(=O)CCCCCCCCCCCCC)c5c4[C@@]2(CCN3CC2CC2)[C@H]1O5 | >402 mg/mL |
| CCCCCCCCCCCC(=O)OCOc1ccc2c3c1O[C@H]1C(=O)CC[C@@]4(O)C(C2)N(CC2CC2)CC[C@]314 | >410.5 mg/mL |
| CCCCCCCCCCCCCCCC(=O)Oc1ccc2c3c1O[C@H]1C(=O)CC[C@@]4(O)C(C2)N(CC2CC2)CC[C@]314 | <50 mg/mL |
